Assay: Solubility in PBS
Type: physicochemical
Details: aqueous buffer
valueKind: solubility

Query: Which measured solubility value corresponds to O=C(c1ccc(Cl)cc1Cl)N1CCO[C@@H](c2ccccc2)C1 [F0045(S)] ?
Response: > 500 µM

Recorded values, source paper PMC7414093.
